Target: DNA topoisomerase 1 (Homo sapiens)
Sequence (whole entry): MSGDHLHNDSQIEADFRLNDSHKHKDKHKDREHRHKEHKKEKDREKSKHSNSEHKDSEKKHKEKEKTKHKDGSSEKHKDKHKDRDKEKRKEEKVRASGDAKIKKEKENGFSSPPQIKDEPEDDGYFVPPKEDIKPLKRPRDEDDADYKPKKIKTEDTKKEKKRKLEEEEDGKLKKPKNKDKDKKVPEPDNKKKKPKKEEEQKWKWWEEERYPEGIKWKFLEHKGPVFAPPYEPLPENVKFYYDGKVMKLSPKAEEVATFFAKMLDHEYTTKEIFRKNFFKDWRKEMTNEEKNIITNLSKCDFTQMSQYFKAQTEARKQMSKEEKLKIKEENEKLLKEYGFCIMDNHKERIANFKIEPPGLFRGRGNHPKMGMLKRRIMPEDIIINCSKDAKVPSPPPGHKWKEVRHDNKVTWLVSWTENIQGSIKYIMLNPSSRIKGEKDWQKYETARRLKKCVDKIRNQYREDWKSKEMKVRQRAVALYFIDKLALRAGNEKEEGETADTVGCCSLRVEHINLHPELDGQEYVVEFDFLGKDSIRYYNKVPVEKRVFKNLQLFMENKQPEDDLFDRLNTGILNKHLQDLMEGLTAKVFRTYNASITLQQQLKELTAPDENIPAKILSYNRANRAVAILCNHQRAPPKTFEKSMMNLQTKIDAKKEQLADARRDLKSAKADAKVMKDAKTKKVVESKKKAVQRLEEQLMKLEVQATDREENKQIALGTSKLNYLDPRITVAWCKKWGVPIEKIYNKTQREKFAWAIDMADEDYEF
Assay: Inhibition of human recombinant Topoisomerase 1 using supercoiled pBR322 DNA as substrate at 100 uM incubated for 30 mins by ethidium bromide staining based agarose gel electrophoresis
Activity calls are given as the source filed them. The calls are words filed in the database; no cut-off is given here.

{"columns": ["Compound", "Tgt", "inhibition"],
 "data": [
  ["CC[C@@]1(OC(=O)NCCOCCO[C@@H]2O[C@H](CO)[C@@H](O)[C@H](OC(N)=O)[C@@H]2O)C(=O)OCc2c1cc1n(c2=O)Cc2cc3ccccc3nc2-1", "DNA topoisomerase 1 (Homo sapiens)", "Active"],
  ["CC[C@@]1(OC(=O)NCCO[C@@H]2O[C@H](COC(C)=O)[C@@H](OC(C)=O)[C@H](OC(C)=O)[C@@H]2O[C@H]2O[C@H](COC(C)=O)[C@@H](OC(C)=O)[C@H](OC(N)=O)[C@H]2OC(C)=O)C(=O)OCc2c1cc1n(c2=O)Cc2cc3ccccc3nc2-1", "DNA topoisomerase 1 (Homo sapiens)", "Active"],
  ["CC[C@@]1(OC(=O)NCCOCCO[C@@H]2O[C@H](COC(C)=O)[C@@H](OC(C)=O)[C@H](OC(C)=O)[C@@H]2O[C@H]2O[C@H](COC(C)=O)[C@@H](OC(C)=O)[C@H](OC(N)=O)[C@H]2OC(C)=O)C(=O)OCc2c1cc1n(c2=O)Cc2cc3ccccc3nc2-1", "DNA topoisomerase 1 (Homo sapiens)", "Active"],
  ["CCc1c2c(nc3ccc(OC(=O)N4CCC(N5CCCCC5)CC4)cc13)-c1cc3c(c(=O)n1C2)COC(=O)[C@]3(O)CC [IRINOTECAN]", "DNA topoisomerase 1 (Homo sapiens)", "Active"],
  ["CC[C@@]1(O)C(=O)OCc2c1cc1n(c2=O)Cc2cc3cc(O)ccc3nc2-1", "DNA topoisomerase 1 (Homo sapiens)", "Active"],
  ["CC[C@@]1(OC(=O)NCCOCCO[C@@H]2O[C@H](COC(C)=O)[C@H](OC(C)=O)[C@H](OC(C)=O)[C@H]2OC(C)=O)C(=O)OCc2c1cc1n(c2=O)Cc2cc3ccccc3nc2-1", "DNA topoisomerase 1 (Homo sapiens)", "Active"],
  ["CC[C@@]1(OC(=O)NCCOCCOCCO[C@@H]2O[C@H](COC(C)=O)[C@H](OC(C)=O)[C@H](OC(C)=O)[C@H]2OC(C)=O)C(=O)OCc2c1cc1n(c2=O)Cc2cc3ccccc3nc2-1", "DNA topoisomerase 1 (Homo sapiens)", "Active"],
  ["CC[C@@]1(OC(=O)NCCOCCOCCO[C@@H]2O[C@H](CO)[C@H](O)[C@H](O)[C@H]2O)C(=O)OCc2c1cc1n(c2=O)Cc2cc3ccccc3nc2-1", "DNA topoisomerase 1 (Homo sapiens)", "Active"]
]}

###

test system: SW1990; assay: Antitumor activity against human SW1990 cells assessed as inhibition of cell growth measured after 48 hrs by MTT assay; assay type: functional, cell-based; conditions: SW1990, 48 h
pIC50: −log10 of the molar value.
Collected pIC50 values appear next to each entry.

{"columns": ["Compound", "pIC50"],
 "data": [
  ["CC[C@@]1(OC(=O)NCCO[C@@H]2O[C@H](CO)[C@H](O)[C@H](O)[C@H]2O)C(=O)OCc2c1cc1n(c2=O)Cc2cc3ccccc3nc2-1", 5.03],
  ["CC[C@@]1(OC(=O)NCCOCCOC2O[C@H](COC(C)=O)[C@@H](OC(C)=O)[C@H](OC(C)=O)[C@@H]2OC(C)=O)C(=O)OCc2c1cc1n(c2=O)Cc2cc3ccccc3nc2-1 (single isomer, unassigned)", 4.99],
  ["CC[C@@]1(OC(=O)NCCO[C@@H]2O[C@H](COC(C)=O)[C@@H](OC(C)=O)[C@H](OC(C)=O)[C@@H]2OC(C)=O)C(=O)OCc2c1cc1n(c2=O)Cc2cc3ccccc3nc2-1", 5.01]
]}
